# key: entry, value: Emax
- test.system: hCB2 receptor (Homo sapiens, UniProt P34972)
- Construct: purchased ES-111-MG; host or cells: CHO membrane extracts
- Sequence (P34972 whole entry): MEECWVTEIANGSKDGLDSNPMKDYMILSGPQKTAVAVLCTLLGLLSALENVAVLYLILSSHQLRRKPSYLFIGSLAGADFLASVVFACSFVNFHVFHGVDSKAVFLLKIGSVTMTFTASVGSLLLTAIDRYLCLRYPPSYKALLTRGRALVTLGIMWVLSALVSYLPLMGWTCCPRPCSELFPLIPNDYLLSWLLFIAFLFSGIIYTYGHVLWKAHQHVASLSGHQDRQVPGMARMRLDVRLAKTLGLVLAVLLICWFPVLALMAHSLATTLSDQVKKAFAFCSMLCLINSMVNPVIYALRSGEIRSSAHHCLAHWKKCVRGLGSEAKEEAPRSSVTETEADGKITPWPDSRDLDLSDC
- experiment: CB2 functional assay, [35S]GTP-γ-S binding
- Type: biochemical
- settings: Table 10; repeated experiment
Write it as a number; the unit % goes unstated.

{"smiles.string": "CCCCN1C(=O)/C(=N\\NC(=O)c2ccccc2)c2ccc(OC)cc21", "scale.unit": "%", "Emax": -95}

Param item = COc1ccc2c(c1)N(CCC1CCCCC1)C(=O)/C2=N\NC(=O)c1ccccc1 ; retrieve measured Emax. -104

Param item = COc1ccc2c(c1)N(Cc1ccccc1)C(=O)/C2=N\NC(=O)c1ccccc1 ; retrieve measured Emax. -96

Param item = CCCCCN1C(=O)/C(=N\NC(=O)c2ccccc2)c2ccc(OC)cc21 ; retrieve measured Emax. -108

Param item = COc1ccc2c(c1)N(CC1CCCCC1)C(=O)/C2=N\NC(=O)c1ccccc1 ; retrieve measured Emax. -82

Param item = CCCCCCN1C(=O)/C(=N\NC(=O)c2ccccc2)c2ccc(OC)cc21 ; retrieve measured Emax. -95

====

- test.system: hCB2 receptor (Homo sapiens)
- Construct: purchased ES-111-MG; host or cells: CHO membrane extracts
- experiment: CB2 functional assay, [35S]GTP-γ-S binding
- Format: biochemical
- settings: Table 10; repeated experiment; read-out: [35S]GTP-γ-S hCB2 EC50
readout: pEC50
Reminder that pEC50 means the negative base-10 logarithm of the concentration expressed in mol/L.

{"smiles.string": "CCCCN1C(=O)/C(=N\\NC(=O)c2ccccc2)c2ccc(OC)cc21", "pEC50": 7.07}
{"smiles.string": "CCCCCN1C(=O)/C(=N\\NC(=O)c2ccccc2)c2ccc(OC)cc21", "pEC50": 8.24}
{"smiles.string": "COc1ccc2c(c1)N(Cc1ccccc1)C(=O)/C2=N\\NC(=O)c1ccccc1", "pEC50": 6.99}
{"smiles.string": "COc1ccc2c(c1)N(CCC1CCCCC1)C(=O)/C2=N\\NC(=O)c1ccccc1", "pEC50": 6.27}

Shift focus to the following entry.
Param item = COc1ccc2c(c1)N(CC1CCCCC1)C(=O)/C2=N\NC(=O)c1ccccc1 ; retrieve measured pEC50. 7.74

====

- test.system: human CB2 (hCB2) receptor (Homo sapiens, UniProt P34972)
- Construct: expressed in transfected cells; host or cells: CHO (Chinese hamster ovary) cells, membranes
- Sequence (P34972 whole entry): as above
- experiment: CB2 binding assay, competitive binding of [3H]WIN 55212-2
- settings: at 10 μM; specific binding of [3H]-WIN55212-2; read-out: % inhibition hCB2 receptor
# key: entry, value: inhibition at 10 µM

The cases that follow already have their inhibition at 10 µM on record.
{"smiles.string": "O=C1/C(=N\\NS(=O)(=O)c2ccccc2)c2ccccc2N1CCC1CCCCC1", "readout": "inhibition at 10 µM", "val": "< 40%"}
{"smiles.string": "O=C1/C(=N\\NC(=S)Nc2ccccc2)c2ccccc2N1CCC1CCCCC1", "readout": "inhibition at 10 µM", "val": "< 40%"}
{"smiles.string": "CCCCCCN1C(=O)/C(=N\\NC(=S)Nc2ccccc2)c2ccccc21", "readout": "inhibition at 10 µM", "val": "37.7%"}

Shift focus to the following entry.
Param item = CCCCCCN1C(=O)/C(=N\NS(=O)(=O)c2ccccc2)c2ccccc21 ; retrieve measured inhibition at 10 µM. < 40%
